methodDescription: compound binding in COS7 lysate, probe aLAP1, primary screen, cell lysate, small-molecule microarray (AID 1124);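 note: lysate comes from COS7 cells expressing LAP1 and is applied at 0.3 µg/mL; score merges spot fluorescence near 667 nm with signal-to-noise over triplicate slides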
conditionSet: probe aLAP1, fluorescence, higher = more signal
Use 0.4 as the dividing line for composite z-score, with the line itself on the fulfilled side and lower values as not fulfilled.

Task: State whether the measured composite z-score reaches 0.4, counting equality as reaching it, for [N-]=[N+]=NCc1ccccc1C[C@@]1(C(=O)NCC(O)CO)N=C(c2ccc(OCCCO)cc2)O[C@@H]1c1ccccc1N=[N+]=[N-] (stereo partly specified)
Output: fulfilled

Task: State whether the measured composite z-score reaches 0.4, counting equality as reaching it, for "COCCOC(=O)N1C(=O)[C@@]2(c3cc(C#CC4=CCCCC4)ccc31)[C@H](C(=O)Nc1nc3ccccc3s1)[C@H]1C(=O)O[C@H](c3ccccc3)[C@H](c3ccccc3)N1[C@@H]2c1ccc(OCCO)cc1"
Output: not fulfilled

Task: State whether the measured composite z-score reaches 0.4, counting equality as reaching it, for "Cc1ccc(S[C@]2(C(=O)NCC(C)C)CC(=O)N(Cc3cc(C(F)(F)F)cc(C(F)(F)F)c3)[C@@H]2c2ccc(CO)cc2I)cc1"
Output: fulfilled

Task: State whether the measured composite z-score reaches 0.4, counting equality as reaching it, for "[N-]=[N+]=Nc1ccccc1C[C@]1(C(N)=O)N=C(c2ccc(OCCCO)cc2)O[C@H]1c1ccccc1"
Output: not fulfilled

Task: State whether the measured composite z-score reaches 0.4, counting equality as reaching it, for "O=C1O[C@H](c2ccccc2)[C@H](c2ccccc2)N2[C@H]1[C@@H](C(=O)Nc1nc3ccccc3s1)[C@]1(C(=O)Nc3ccc(C#CC4(O)CCCCCC4)cc31)[C@H]2c1ccc(OCCO)cc1"
Output: fulfilled

Task: State whether the measured composite z-score reaches 0.4, counting equality as reaching it, for "O=C1[C@H]2C=C(Br)[C@H](C[C@@H]2c2ccccc2)[C@@]12CO2"
Output: not fulfilled
